Target: Torsin-1A (Homo sapiens) (UniProt O14656)
Sequence (O14656 whole entry, looked up): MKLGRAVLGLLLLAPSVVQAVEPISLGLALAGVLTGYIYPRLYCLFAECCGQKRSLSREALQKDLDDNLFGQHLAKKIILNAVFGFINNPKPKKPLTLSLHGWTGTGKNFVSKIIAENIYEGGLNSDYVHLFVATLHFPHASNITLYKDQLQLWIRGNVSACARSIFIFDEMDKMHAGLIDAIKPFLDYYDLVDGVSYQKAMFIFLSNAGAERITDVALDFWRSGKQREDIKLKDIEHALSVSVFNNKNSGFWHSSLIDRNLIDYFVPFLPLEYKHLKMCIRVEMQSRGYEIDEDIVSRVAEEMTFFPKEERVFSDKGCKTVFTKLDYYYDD
Assay: small-molecule binders of mutant TOR1A in lysate, primary screen, cell lysate, small-molecule microarray, COS7 lysate, 635/667 nm fluorescence (AID 1150);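 further: score pools 667 nm emission and signal to noise measuring lysate protein binding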
Settings: COS7 hTOR1A mutant lysate, 635 nm fluorescence, higher = more signal
Reported values of composite z-score for individual entries
Number only, no unit.

// solved cases for composite z-score follow
COc1ccc(NC(=O)O[C@H]2[C@H](OC(=O)Nc3ccc4c(c3)OCO4)[C@@H](OC(=O)Nc3ccc4c(c3)OCO4)[C@@H](OC)O[C@@H]2CO)cc1    1.27
COc1ccc([Si](C)(C)[C@@H]2[C@@H](CCn3cc([C@H](O)c4ccccc4)nn3)O[C@]3(C(=O)N(Cc4ccc(N5CCOC5=O)cc4)c4ccccc43)[C@H]2C)cc1    1.14
CN1C(=O)C2C(C1=O)C1C=C(c3ccc(CO)cc3)C2C(c2cccs2)N1Cc1cccc(OC(F)(F)F)c1 (centres undefined)    -0.0742

Read the next record carefully.
**Query** Would you mind telling me what composite z-score value was observed for C=C(/C(=C/C[C@@H](OC(=O)c1ccncc1)c1ccccc1OCCO)c1cc(C(=O)OC)ccc1OC)C(C)C ?
**Result** 1.29
